Assay: Food-effect crossover bioavailability study, 600 mg fed vs fasted, healthy adult subjects (Example 2)
Format: in vivo, human
Conditions: both sexes, human, plasma, po, 600 mg, 600 mg PO, fasted, mean, balanced data; read-out: t½ (converted)
Recorded metric: half-life (h)
Give just the number in h; leave the unit off.

Asked: Record request: half-life value, item CC(C)(C)NC(=O)N[C@H](C(=O)N1C[C@H]2[C@@H]([C@H]1C(=O)NC(CC1CCC1)C(=O)C(N)=O)C2(C)C)C(C)(C)C (mixture of isomers) [Formula Ia]
Given back: 12

====

Assay: Phase 1 rising-single-dose pharmacokinetic study in healthy adult subjects (Example 1)
Type: in vivo, human
Details: human, plasma; single oral dose 100 mg, median, n = 6; read-out: Tmax
Recorded metric: Tmax (h)
Give just the number in h; leave the unit off.

Asked: Record request: Tmax value, item CC(C)(C)NC(=O)N[C@H](C(=O)N1C[C@H]2[C@@H]([C@H]1C(=O)NC(CC1CCC1)C(=O)C(N)=O)C2(C)C)C(C)(C)C (mixture of isomers)
Given back: 2

====

Assay: Food-effect crossover bioavailability study, 600 mg fed vs fasted, healthy adult subjects (Example 2)
Format: in vivo, human
Conditions: both sexes, human, plasma, po, 600 mg, 600 mg PO, fasted, n = 20; read-out: Cmax, model-based (least square) mean
Description: This was a randomized, open-label, single-dose, two-treatment (fed or fasted), two-period, two-sequence crossover study of the effect of food on the bioavailability of compound of Formula Ia in 23 healthy adult male and female subjects. The primary pharmacokinetic parameters were AUC(l) and Cmax for compound of Formula Ia. […] Plasma concentrations of compound of Formula Ia were determined using a validated liquid chromatography tandem mass spectrometry (LC-MS/MS) method. […]
Recorded metric: Cmax (ng/mL)
Give just the number in ng/mL; leave the unit off.

Asked: Record request: Cmax value, item CC(C)(C)NC(=O)N[C@H](C(=O)N1C[C@H]2[C@@H]([C@H]1C(=O)NC(CC1CCC1)C(=O)C(N)=O)C2(C)C)C(C)(C)C (mixture of isomers)
Given back: 418

====

Test: Phase 1 rising-single-dose pharmacokinetic study in healthy adult subjects (Example 1)
Assay type: in vivo, human
Conditions: human, plasma, po, 600 mg, single oral dose 600 mg, mean, n = 6; read-out: AUC(l)
Recorded metric: AUC (ng·h/mL)
Give just the number in ng·h/mL; leave the unit off.

Asked: Record request: AUC value, item CC(C)(C)NC(=O)N[C@H](C(=O)N1C[C@H]2[C@@H]([C@H]1C(=O)NC(CC1CCC1)C(=O)C(N)=O)C2(C)C)C(C)(C)C (mixture of isomers) [Formula Ia]
Given back: 2160

====

Experiment: Food-effect crossover bioavailability study, 600 mg fed vs fasted, healthy adult subjects (Example 2)
Format: in vivo, human
Conditions: both sexes, human, plasma, po, 600 mg, 600 mg PO, fasted, median (range), balanced data
Recorded metric: Tmax (h)
Give just the number in h; leave the unit off.

Asked: Record request: Tmax value, item CC(C)(C)NC(=O)N[C@H](C(=O)N1C[C@H]2[C@@H]([C@H]1C(=O)NC(CC1CCC1)C(=O)C(N)=O)C2(C)C)C(C)(C)C (mixture of isomers)
Given back: 2

====

Test: Multiple oral dosing for 14 days, pharmacokinetics in HCV infected subjects (Example 3)
Assay type: in vivo, human
Conditions: human, plasma, oral, 200 mg, Day 14, 200 mg BID, median; read-out: Tmax
Recorded metric: Tmax (h)
Give just the number in h; leave the unit off.

Asked: Record request: Tmax value, item CC(C)(C)NC(=O)N[C@H](C(=O)N1C[C@H]2[C@@H]([C@H]1C(=O)NC(CC1CCC1)C(=O)C(N)=O)C2(C)C)C(C)(C)C (mixture of isomers)
Given back: 1.25
